Would you mind telling me the reported survival of each entry?
tested on: DeltatarO mutant; test: S. aureus survival, RN4220 and DeltatarO strains – OD600, teichoic acid synthesis inhibitors, primary screen (AID 463173); conditions: S. aureus RN4220 wild type/DeltatarO growth, OD600, 18 h, stronger effect = lower value, screened at 18.75 µg/mL (by protocol)
Out of some 52,000 compounds screened, about 4,300 (8.3%) were called active. The full list was thinned out, with actives kept by preference.
Numbers only, in %.

- Cc1ccccc1C(=O)N1CCN(CCc2ccccn2)CC1: 49

Would you mind giving survival for every molecule in the list below?
1. COc1ccccc1NC(=O)CN1C(=O)CC(c2ccc(C)c(C)c2)=Nc2ccccc21
2. CSc1ccc(CCNC(=O)c2cc3c(-c4ccccc4F)nn(C)c3s2)cc1
3. CC(=O)c1cccc(NC(=O)c2oc3c(c2C)-c2nn(Cc4ccc(Cl)cc4)cc2CC3)c1

**Result**
1: 84; 2: 55; 3: 64

Would you mind giving survival for every molecule in the list below?
1. CCc1ccc(-n2c(=O)c3c4c(sc3n(CC(=O)c3ccc(F)cc3)c2=O)CCC4)cc1
2. Cc1ccc(CNC(=O)c2sc3nc(-c4ccccc4)cn3c2C)cc1
3. Cc1ccc(C)c(NC(=O)CN2C(=O)COc3ccc(Cl)cc32)c1

**Result**
1. 81
2. 123
3. 69

---

Would you mind telling me the reported survival of each entry?
system: DeltatarO mutant; assay: S. aureus survival, RN4220 and DeltatarO strains – OD600, teichoic acid synthesis inhibitors, primary screen (AID 463173); conditions: S. aureus RN4220 wild type/DeltatarO growth, OD600, 18 h, stronger effect = lower value, screened at 18.75 µg/mL (by protocol)
The campaign covered roughly 52,000 compounds. About 4,300 (8.3%) were called active. Only a selection was taken, and actives are over-represented in it overall.
One number for each entry, in %.

Would you mind giving survival for every molecule in the list below?
1. Cc1oc2c(c(C)cc3oc(=O)c(CC(=O)NCc4ccc(F)cc4)c(C)c32)c1C
2. Cc1nn2c(=O)cc(COC(=O)c3ccc(NC(=O)c4cccc(Br)c4)cc3)nc2s1
3. Cc1ccc(-n2ncc3c(N(C)C)ncnc32)cc1Cl
4. COc1cc(-c2nc3n(n2)C(c2ccc(F)cc2)C(C(N)=O)=C(C)N3)cc(OC)c1OC (stereo unspecified)

**Result**
89
97
94
91

Would you mind giving survival for every molecule in the list below?
1. COc1ccc(C)cc1NC(=O)NCc1ccc2c(c1)CCN2C(=O)c1ccccc1
2. COC(=O)c1c(-c2cccs2)csc1NC(=O)c1ccc(C(C)C)cc1

**Result**
1. 105
2. 73

Would you mind giving survival for every molecule in the list below?
1. CCOc1ccccc1CNC(=O)c1cccn1-c1nnc(N2CCCC2)s1
2. COc1ccccc1CCNC(=O)c1cccn1-c1nnc(N2CCCCC2)s1
3. COc1cccc(C(=O)c2cn(CC(=O)Nc3ccc4c(c3)OCCO4)c3nc(C)ccc3c2=O)c1

**Result**
1. 102
2. 95
3. 68

Would you mind giving survival for every molecule in the list below?
1. CCN1CCc2c(sc(-n3cccc3)c2C(C)NC(=O)Nc2ccc(Br)cc2)C1 (stereo unspecified)
2. Cc1cc(C)cc(NC(=O)C(=O)NCC(c2cccnc2)N2CCOCC2)c1 (stereo unspecified)
3. COc1cccc(C(=O)N2c3cc(C)ccc3C(C)(c3ccccc3)CC2(C)C)c1 (stereo unspecified)
4. COc1ccccc1N1CCN(c2ncnc3c2nc2n3CCCC2)CC1
5. COc1ccc(Cn2c(=O)c3oc4ccccc4c3n(Cc3cccc(C(F)(F)F)c3)c2=O)cc1

**Result**
1. 102
2. 107
3. 1
4. 67
5. 73
